system: LOX IMVI melanoma; test: NCI-60 one-dose screen, 48 h; settings: 10 µM unless noted
The panel holds about 83,000 compounds, 20% with a hit somewhere; the sample as a whole holds those more often. The source made the active and inactive calls. The calls were made as follows: active = growth percent below 10; inactive = the rest.
Possible outcomes: true for active, false for inactive

{"MOLECULE": "O=C(Nc1cccc2ccccc12)c1cc2c(cc1Br)OCO2", "TESTED_SYSTEM": "LOX IMVI melanoma", "CLASSIFICATION": "false"}
{"MOLECULE": "O=C(O)c1ccccc1C(=O)OC1CCCC2CCCC21 (centres undefined)", "TESTED_SYSTEM": "LOX IMVI melanoma", "CLASSIFICATION": "false"}
{"MOLECULE": "N#Cc1c2ccccc2c2n1-c1ccccc1OC(c1ccccc1)C2=O (centres undefined)", "TESTED_SYSTEM": "LOX IMVI melanoma", "CLASSIFICATION": "true"}
{"MOLECULE": "C/C(=N/N=C(N)N)c1ccc(N)cc1", "TESTED_SYSTEM": "LOX IMVI melanoma", "CLASSIFICATION": "false"}
{"MOLECULE": "Clc1cc(Cl)c(OCC#CI)cc1Cl", "TESTED_SYSTEM": "LOX IMVI melanoma", "CLASSIFICATION": "true"}
{"MOLECULE": "C[n+]1c2ccccc2c(Nc2ccc(N3CCCCC3)cc2)c2[nH]c3ccccc3c21", "TESTED_SYSTEM": "LOX IMVI melanoma", "CLASSIFICATION": "true"}
{"MOLECULE": "COC(=O)[C@]1(CCSC)N[C@H](c2cn(-c3ccccc3)nc2C)[C@@H]2C(=O)N(c3ccccc3)C(=O)[C@@H]21", "TESTED_SYSTEM": "LOX IMVI melanoma", "CLASSIFICATION": "false"}
{"MOLECULE": "CC(=O)NC1(C(=O)O)CCCC1", "TESTED_SYSTEM": "LOX IMVI melanoma", "CLASSIFICATION": "false"}
{"MOLECULE": "CC/C(=C\\c1ccc(N(C)C)cc1)c1ccncc1", "TESTED_SYSTEM": "LOX IMVI melanoma", "CLASSIFICATION": "false"}
{"MOLECULE": "Cc1c(C(N)=O)sc2c1c(=O)n(Cc1ccccc1)c1nnc(S(=O)(=O)CC(=O)Nc3ccc(Cl)cc3)n21", "TESTED_SYSTEM": "LOX IMVI melanoma", "CLASSIFICATION": "false"}
{"MOLECULE": "O=C1N(C2CCCCC2)C(=O)N1C1CCCCC1", "TESTED_SYSTEM": "LOX IMVI melanoma", "CLASSIFICATION": "false"}
{"MOLECULE": "O=C(OC[C@H]1O[C@H](OC(=O)c2cc(O)c(O)c(OC(=O)c3cc(O)c(O)c(O)c3)c2)[C@H](OC(=O)c2cc(O)c(O)c(OC(=O)c3cc(O)c(O)c(O)c3)c2)[C@@H](OC(=O)c2cc(O)c(O)c(OC(=O)c3cc(O)c(O)c(O)c3)c2)[C@@H]1OC(=O)c1cc(O)c(O)c(OC(=O)c2cc(O)c(O)c(O)c2)c1)c1cc(O)c(O)c(OC(=O)c2cc(O)c(O)c(O)c2)c1", "TESTED_SYSTEM": "LOX IMVI melanoma", "CLASSIFICATION": "true"}
{"MOLECULE": "CO[C@H]1/C=C/O[C@@]2(C)Oc3c(C)c(O)c4c(O)c(c(/C=N/N5C(C)CN(Cc6ccccc6)CC5C)c(O)c4c3C2=O)NC(=O)/C(C)=C\\C=C\\[C@H](C)[C@H](O)[C@@H](C)[C@@H](O)[C@@H](C)[C@H](OC(C)=O)[C@@H]1C (some centres undefined)", "TESTED_SYSTEM": "LOX IMVI melanoma", "CLASSIFICATION": "false"}
{"MOLECULE": "COc1ccc2c3c(c(OCCCN(C)C)nc2c1)-c1ccc(Cl)cc1C3=O", "TESTED_SYSTEM": "LOX IMVI melanoma", "CLASSIFICATION": "true"}
{"MOLECULE": "C=C(C)[C@@H]1C[C@H](O)Cc2cc(Cl)cc(Cl)c2N1", "TESTED_SYSTEM": "LOX IMVI melanoma", "CLASSIFICATION": "false"}
{"MOLECULE": "CCCC[N+](CCCC)=c1ccc2nc3c(C)cc(N(CC)CC)cc3sc-2c1", "TESTED_SYSTEM": "LOX IMVI melanoma", "CLASSIFICATION": "true"}
{"MOLECULE": "CCC(C)CC(CC)NCCN1CCN(C(CC)CC(C)CC)C1=S (centres undefined)", "TESTED_SYSTEM": "LOX IMVI melanoma", "CLASSIFICATION": "true"}
{"MOLECULE": "Cc1cc(C(=O)O)c(C)cc1C(=O)O", "TESTED_SYSTEM": "LOX IMVI melanoma", "CLASSIFICATION": "false"}
{"MOLECULE": "COc1ccc(-c2cncn2-c2ccc(-c3nc4cc(OC)c(OC)c(OC)c4s3)cc2)cc1N", "TESTED_SYSTEM": "LOX IMVI melanoma", "CLASSIFICATION": "false"}
